Below: a set of entries, each annotated with reported Activity.
Biological target: Gap junction beta-2 protein (Homo sapiens) (UniProt P29033)
Assay: Inhibition of human Cx26 expressed in kanamycin-resistant Escherichia coli LB2003 cells in medium containing […] K+ and 500 uM IPTG by measuring cell growth at 50 uM after 18 hrs by growth complementation assay
Parameters: scale not given: the % may be the effect or the level left

Entry Smiles: NC[C@H]1O[C@H](O[C@H]2[C@H](O)[C@@H](O[C@H]3O[C@H](COc4ccccc4)[C@@H](O)[C@H](N)[C@H]3O)[C@H](N)C[C@@H]2N)[C@H](O)[C@@H](O)[C@@H]1O
Activity: 69.4%
--
Entry Smiles: NC[C@H]1O[C@H](O[C@H]2[C@H](O)[C@@H](O[C@H]3O[C@H](CNC(=O)c4ccccc4-c4c5ccc(=O)cc-5oc5cc(O)ccc45)[C@@H](O)[C@H](N)[C@H]3O)[C@H](N)C[C@@H]2N)[C@H](O)[C@@H](O)[C@@H]1O
Activity: 81%
--
Entry Smiles: N[C@@H]1[C@@H](O)[C@@H](O[C@@H]2[C@@H](O)[C@H](O[C@H]3O[C@H](CNC(=O)c4cc(-c5ccccc5)nc5ccccc45)[C@@H](O)[C@H](O)[C@H]3O)[C@@H](N)C[C@H]2N)O[C@H](CO)[C@H]1O
Activity: 22.8%
--
Entry Smiles: COc1ccc2cc(C(=O)NC[C@H]3O[C@H](O[C@H]4[C@H](O)[C@@H](O[C@H]5O[C@H](CO)[C@@H](O)[C@H](N)[C@H]5O)[C@H](N)C[C@@H]4N)[C@H](O)[C@@H](O)[C@@H]3O)ccc2c1
Activity: 27.9%

Q: Give Activity (Gap junction beta-2 protein (Homo sapiens) (UniProt P29033)) of the following compound: `CCCCCCCC(=O)NC[C@H]1O[C@H](O[C@H]2[C@H](O)[C@@H](O[C@H]3O[C@H](CO)[C@@H](O)[C@H](N)[C@H]3O)[C@H](N)C[C@@H]2N)[C@H](O)[C@@H](O)[C@@H]1O`
Result: 25.2%

====

Below: a set of entries, each annotated with reported Activity.
Target: Gap junction beta-2 protein (Homo sapiens)
Assay: Inhibition of human Cx26 expressed in kanamycin-resistant Escherichia coli LB2003 cells in medium containing […] K+ and 500 uM IPTG by measuring cell growth at 50 uM after 18 hrs by growth complementation assay
Set-up: scale not given: the % may be the effect or the level left
Number only, in %; omit the unit.

Entry Smiles: N[C@@H]1[C@@H](O)[C@@H](O[C@@H]2[C@@H](O)[C@H](O[C@H]3O[C@H](CNC(=O)CCCc4cc5ccc6cccc7ccc(c4)c5c67)[C@@H](O)[C@H](O)[C@H]3O)[C@@H](N)C[C@H]2N)O[C@H](CO)[C@H]1O
Recorded Measurement: 79.2

Q: Please give the measured Activity for this compound: `CCCCCCCCCC(=O)NC[C@H]1O[C@H](O[C@H]2[C@H](O)[C@@H](O[C@H]3O[C@H](CO)[C@@H](O)[C@H](N)[C@H]3O)[C@H](N)C[C@@H]2N)[C@H](O)[C@@H](O)[C@@H]1O`
Result: 33.6

Q: Please give the measured Activity for this compound: `COc1ccc(OC[C@H]2O[C@H](O[C@@H]3[C@@H](O)[C@H](O[C@H]4O[C@H](CN)[C@@H](O)[C@H](O)[C@H]4O)[C@@H](N)C[C@H]3N)[C@H](O)[C@@H](N)[C@@H]2O)cc1`
Result: 36.5
